# System: UO-31
# assay_explanation: SRB anticancer assay, renal
# Assay type: cell-based, human
# Design: unit not given here
# measurement_parameters: UO-31; present compounds
measured_endpoint: Log10GI50
One number for each entry.

Examples with answers:
>>> df
                                   compound  obs_value
0  COc1cc(OC)cc(-c2cncn2-c2ccc(-c3nc4cc(OC)c(OC)c(OC)c4s3)cc2)c1 [Compound 7d]      −5.71
1  COc1ccc(-c2cncn2-c2ccc(-c3nc4cc(OC)c(OC)c(OC)c4s3)cc2)cc1N [Compound 7j]      −5.70
2  COc1cc2nc(-c3ccc(-n4cncc4-c4ccc(N)cc4)cc3)sc2c(OC)c1OC [Compound 7h]      −5.81

// switching to the query compound
Exercise: # get_value(readout='Log10GI50', item= COc1cc(-c2cncn2-c2ccc(-c3nc4ccc(F)cc4s3)cc2)ccc1F [Compound 4c] )
Key: −4.78

###

# Tested on: MALME-3M
# assay_explanation: SRB anticancer assay, melanoma
# Assay type: cell-based, human
# measurement_parameters: Homo sapiens, Malme-3M, 48 h
measured_endpoint: GI50
Quick note: unit goes after the number.

In [3]: df
Out[3]:
                        structure_as_smiles  measured_endpoint  obs_value
0  COc1cc(OC)c2sc(-c3ccc(-n4cncc4-c4cc(OC)c(OC)c(OC)c4)cc3)nc2c1               GI50    3.73 µM
1  COc1cc(OC)cc(-c2cncn2-c2ccc(-c3nc4cc(OC)c(OC)c(OC)c4s3)cc2)c1               GI50    9.58 µM
2  COc1ccc(-c2cncn2-c2ccc(-c3nc4cc(OC)c(OC)c(OC)c4s3)cc2)cc1N               GI50    2.48 µM
3  COc1cc(OC)c2sc(-c3ccc(-n4cncc4-c4ccc(OC)c(OC)c4)cc3)nc2c1               GI50    59.8 µM

Hi! Can you tell me GI50 for each of these compounds?
1. COc1cc2nc(-c3ccc(-n4cncc4-c4ccc(N)cc4)cc3)sc2c(OC)c1OC
2. COc1cc(-c2cncn2-c2ccc(-c3nc4ccc(F)cc4s3)cc2)ccc1F

Key:
1: 0.71 µM; 2: 11.1 µM

###

# Test system: HCT-15
# assay_explanation: SRB anticancer assay, colon
# Type: cell-based, human
# measurement_parameters: Homo sapiens, HCT-15, 48 h
measured_endpoint: GI50 (µM)
Answers are plain numbers, in µM.

Guide cases for GI50, answers given:
In [3]: df
Out[3]:
                                   compound  measured_endpoint  obs_value
0  COc1cc(OC)c2sc(-c3ccc(-n4cncc4-c4cc(OC)c(OC)c(OC)c4)cc3)nc2c1 [Compound 6f]               GI50       5.48
1  COc1ccc(-c2cncn2-c2ccc(-c3nc4cc(OC)c(OC)c(OC)c4s3)cc2)cc1N [Compound 7j]               GI50       4.02
2  COc1cc(-c2cncn2-c2ccc(-c3nc4ccc(F)cc4s3)cc2)ccc1F [Compound 4c]               GI50       82.3

Next compound, GI50 to be filled in.
Exercise: Requested field: GI50. Item: COc1cc(OC)cc(-c2cncn2-c2ccc(-c3nc4cc(OC)c(OC)c(OC)c4s3)cc2)c1 [Compound 7d]
Key: 5.72

###

Record form. Attribute: GI50. Fill in for each entry.
# System: HS 578T
# assay_explanation: SRB anticancer assay, breast
# Assay type: cell-based, human
# measurement_parameters: Homo sapiens, 48 h
Answers are plain numbers, in µM.

>>> print(df.to_string())
                        structure_as_smiles  measured_endpoint  obs_value
0  COc1cc(OC)cc(-c2cncn2-c2ccc(-c3nc4cc(OC)cc(OC)c4s3)cc2)c1               GI50       3.09

Kindly give each listed record's GI50.
1. COc1cc(-c2cncn2-c2ccc(-c3nc4ccc(F)cc4s3)cc2)ccc1F
2. COc1ccc(-c2cncn2-c2ccc(-c3nc4cc(OC)c(OC)c(OC)c4s3)cc2)cc1N
3. COc1cc(OC)cc(-c2cncn2-c2ccc(-c3nc4cc(OC)c(OC)c(OC)c4s3)cc2)c1
4. COc1cc(OC)c2sc(-c3ccc(-n4cncc4-c4ccc(OC)c(OC)c4)cc3)nc2c1

Key:
1: 11.5; 2: 6.21; 3: 6.71; 4: 9.12

Exercise: What GI50 value was documented for this compound, `COc1cc(OC)c2sc(-c3ccc(-n4cncc4-c4cc(OC)c(OC)c(OC)c4)cc3)nc2c1` ?
Key: 5.23

###

# System: SNB-19
# assay_explanation: SRB anticancer assay, CNS
# Type: cell-based, human
# measurement_parameters: Homo sapiens, SNB-19, 48 h
measured_endpoint: GI50 (µM)
Numbers only, in µM.

Please review the entries below; each comes with its answer.
                        structure_as_smiles  measured_endpoint  obs_value
0  COc1cc(OC)cc(-c2cncn2-c2ccc(-c3nc4cc(OC)c(OC)c(OC)c4s3)cc2)c1               GI50       19.7
1  COc1cc2nc(-c3ccc(-n4cncc4-c4ccc(N)cc4)cc3)sc2c(OC)c1OC               GI50       12.3

Exercise: Which GI50 is listed for `COc1cc(-c2cncn2-c2ccc(-c3nc4ccc(F)cc4s3)cc2)ccc1F` ?
Key: 20.6

###

Can you tell me GI50 for the items I'm about to list?
# Tested on: NCI-H23
# assay_explanation: SRB anticancer assay, non-small lung
# Assay type: cell-based, human
# measurement_parameters: Homo sapiens, NCI-H23, 48 h
Give bare numbers, in µM.

>>> df
                                   compound  target_or_system  measured_endpoint  obs_value
0  COc1cc(-c2cncn2-c2ccc(-c3nc4ccc(F)cc4s3)cc2)ccc1F [Compound 4c]           NCI-H23               GI50       8.25
1  COc1cc(OC)cc(-c2cncn2-c2ccc(-c3nc4cc(OC)cc(OC)c4s3)cc2)c1 [Compound 6d]           NCI-H23               GI50       10.3

I would be grateful if you could provide GI50 for each of the following entries.
1. COc1ccc(-c2cncn2-c2ccc(-c3nc4cc(OC)c(OC)c(OC)c4s3)cc2)cc1N [Compound 7j]
2. COc1cc(OC)cc(-c2cncn2-c2ccc(-c3nc4cc(OC)c(OC)c(OC)c4s3)cc2)c1 [Compound 7d]
3. COc1cc2nc(-c3ccc(-n4cncc4-c4ccc(N)cc4)cc3)sc2c(OC)c1OC [Compound 7h]
4. COc1cc(OC)c2sc(-c3ccc(-n4cncc4-c4cc(OC)c(OC)c(OC)c4)cc3)nc2c1 [Compound 6f]

Key:
1: 4.76; 2: 9.56; 3: 3.87; 4: 6.15

###

# Test system: NCI/ADR-RES
# assay_explanation: SRB anticancer assay, ovarian
# Type: cell-based, human
# measurement_parameters: Homo sapiens, NCI/ADR-RES, 48 h
Could you please report measured log10(GI50) for the items listed next?
In plain terms, each number is the log10 of measured GI50 in µM.

                        structure_as_smiles  obs_value
0  COc1cc(OC)c2sc(-c3ccc(-n4cncc4-c4cc(OC)c(OC)c(OC)c4)cc3)nc2c1       0.75

Value sought for every listed molecule: log10(GI50).
1. COc1cc2nc(-c3ccc(-n4cncc4-c4ccc(N)cc4)cc3)sc2c(OC)c1OC
2. COc1cc(-c2cncn2-c2ccc(-c3nc4ccc(F)cc4s3)cc2)ccc1F
3. COc1ccc(-c2cncn2-c2ccc(-c3nc4cc(OC)c(OC)c(OC)c4s3)cc2)cc1N
4. COc1cc(OC)cc(-c2cncn2-c2ccc(-c3nc4cc(OC)c(OC)c(OC)c4s3)cc2)c1
5. COc1cc(OC)cc(-c2cncn2-c2ccc(-c3nc4cc(OC)cc(OC)c4s3)cc2)c1

Key:
0.21
1.49
0.49
1.04
0.41

###

# Test system: Leukemia cancer cell lines
# assay_explanation: SRB anticancer assay, panel result
# Assay type: cell-based, human
# measurement_parameters: Homo sapiens; six leukemia cancer cell lines; exposure at least 48 h; read-out: GI50, range over the panel
# Experimental: The compounds were evaluated for anticancer activity against sixty human cancer cells derived from nine cancer types (leukemia cell line, non-small-cell lung cell line, colon cell line, CNS cell line, melanoma cell line, ovarian cell line, prostate cell line, renal cancer cell line and breast cancer cell line) as shown in Table 1. For each compound, dose response curves for each cell line were measured at a minimum of five concentrations at 10 fold dilutions. […]
For each of the compounds below, state its GI50.

Solved cases below.
                        structure_as_smiles  measured_endpoint        obs_value
0  COc1ccc(-c2cncn2-c2ccc(-c3nc4cc(OC)c(OC)c(OC)c4s3)cc2)cc1N               GI50      2.2 to 4 µM
1  COc1cc(OC)cc(-c2cncn2-c2ccc(-c3nc4cc(OC)cc(OC)c4s3)cc2)c1               GI50   3.22 to 3.3 µM
2  COc1cc2nc(-c3ccc(-n4cncc4-c4ccc(N)cc4)cc3)sc2c(OC)c1OC               GI50  0.989 to 1.4 µM
3  COc1cc(-c2cncn2-c2ccc(-c3nc4ccc(F)cc4s3)cc2)ccc1F               GI50   2.5 to 6.92 µM
4  COc1cc(OC)c2sc(-c3ccc(-n4cncc4-c4ccc(OC)c(OC)c4)cc3)nc2c1               GI50  3.03 to 5.88 µM
5  COc1cc(OC)cc(-c2cncn2-c2ccc(-c3nc4cc(OC)c(OC)c(OC)c4s3)cc2)c1               GI50  2.43 to 7.14 µM

Query compound follows.
Exercise: Give the measured GI50 of `COc1cc(OC)c2sc(-c3ccc(-n4cncc4-c4cc(OC)c(OC)c(OC)c4)cc3)nc2c1` .
Key: 3.24 to 5.39 µM
